Value source: patent US20250059231A1

target: DENV protease (Dengue virus type 2, UniProt P29990); construct: The virus-encoded dengue protease comprises the amino-terminal 180 amino acids of NS3 (NS3pro) of the polyprotein; test: biochemical; details: at 50 μM; read-out: inhibition of DENV
Sequence (P29990 1398-1437): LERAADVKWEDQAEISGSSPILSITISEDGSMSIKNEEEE
Sequence (P29990 1476-1653): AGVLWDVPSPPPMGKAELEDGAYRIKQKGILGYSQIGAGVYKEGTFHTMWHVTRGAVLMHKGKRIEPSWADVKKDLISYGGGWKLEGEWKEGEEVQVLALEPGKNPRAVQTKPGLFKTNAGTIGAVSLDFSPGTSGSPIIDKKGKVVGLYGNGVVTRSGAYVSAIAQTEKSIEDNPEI
Where a SMILES comes first, the peptide text is derived from it. [ ]: non-standard residue; d: D form. The star is where a group is joined. Palmitoyl = CCCCCCCCCCCCCCCC(=O)*; Phg = N[C@H](C(=O)O)c1ccccc1
Property: inhibition at 50 µM; scope: individual compounds

Example results:
CCCCCCCCCCCCCCCC(=O)N[C@@H](CCCNC(=N)N)C(=O)N[C@@H](CCCNC(=N)N)C(N)=O [compound 112] (Palmitoyl-Arg-Arg-NH2)    ≥ 25%
CCCCCCCCCCCCCCCC(=O)N[C@@H](CCCCN)C(=O)N[C@@H](CCCCN)C(N)=O    ≥ 25%
CCCCCCCCCCCCCCCC(=O)N[C@@H](CCCCN)C(=O)N[C@@H](C)C(=O)N[C@@H](C)C(=O)N[C@@H](Cc1ccccc1)C(N)=O [compound 17] (Palmitoyl-KAAF-NH2)    ≥ 25%
CCCCCCCCCCCCCCCC(=O)N[C@@H](CCCCN)C(=O)N1CCC[C@H]1C(=O)N[C@@H](C)C(=O)N[C@@H](CCc1c[nH]cn1)C(N)=O    ≥ 25%

Q: Please report the recorded inhibition at 50 µM for CCCCCCCCCCCCCCCC(=O)N[C@@H](CCCCN)C(=O)N[C@@H](C)C(=O)N[C@@H](C)C(=O)N[C@H](CCCCN)C(=O)c1ccccc1 .
A: ≥ 25%

Q: For CCCCCCCCCCCCCCCC(=O)N[C@@H](CCCCN)C(=O)N1CCC[C@H]1C(=O)N[C@H](C(=O)N[C@@H](CCCCN)C(N)=O)c1ccccc1 [compound 13] (Palmitoyl-KP[Phg]K-NH2) , what is its reported inhibition at 50 µM?
A: ≥ 25%
